From: patent US20180244653A1

Molecular target: 5HT3A receptors (Mus musculus, UniProt P23979)
Construct: expressed in transfected cells; host or cells: HEK293 cells co-expressing TN-XXL
Sequence (P23979 24-489): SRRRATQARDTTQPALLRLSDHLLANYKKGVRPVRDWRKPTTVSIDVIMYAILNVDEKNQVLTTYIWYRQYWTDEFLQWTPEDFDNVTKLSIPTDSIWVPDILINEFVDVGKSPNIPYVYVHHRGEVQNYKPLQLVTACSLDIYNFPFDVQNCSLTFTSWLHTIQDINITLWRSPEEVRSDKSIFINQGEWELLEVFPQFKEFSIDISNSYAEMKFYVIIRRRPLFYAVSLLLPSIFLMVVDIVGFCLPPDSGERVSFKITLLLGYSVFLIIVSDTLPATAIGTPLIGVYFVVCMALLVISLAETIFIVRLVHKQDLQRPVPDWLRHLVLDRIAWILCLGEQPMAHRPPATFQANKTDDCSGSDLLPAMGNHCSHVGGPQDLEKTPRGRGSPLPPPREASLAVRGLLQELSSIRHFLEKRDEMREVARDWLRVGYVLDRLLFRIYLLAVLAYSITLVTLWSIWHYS
Assay: FRET functional assay (agonist/antagonist) using LGIC-CNiFERs
Format: cell-based
Conditions: Antagonist KA ± SD, 5HT3A, competitive antagonist (^C); >10 = did not pass initial screen; vs 5-HT
Value Type: Kd (µM)
Write it as a number; the unit µM goes unstated.

Ask: Param item = O=C(N[C@H]1CN2CCC1CC2)c1ccc(Cl)cc1 [PNU-282987, reference compound] ; retrieve measured Kd.
Reply: 1.2

---

target: α4β2-nAChRs (Homo sapiens, UniProt P17787+P43681); construct: expressed in transfected cells; host or cells: HEKtsA201 cells co-expressing TN-XXL; assay: FRET functional assay (agonist/antagonist) using LGIC-CNiFERs; type: cell-based; details: Antagonist KA ± SD, α4β2, competitive antagonist (^C); >10 = did not pass initial screen; vs (±)-epibatidine
pKd: −log10 of the molar value.
Measured pKd accompanies every entry in the list below.

# annotated cases, reported pKd shown
COc1ccc2cc(-c3cn(C4CN5CCC4CC5)nn3)ccc2c1 (centres unmarked) [QND6]: 5.15
c1cc2c(cc1-c1cn(C3CN4CCC3CC4)nn1)OCO2 (centres unmarked) [QND1]: < 5.00
Nc1ncnc2c1ncn2Cc1cn(C2CN3CCC2CC3)nn1 (centres unmarked) [QND10]: < 5.00
COc1ccc(-c2cn(C3CN4CCC3CC4)nn2)cc1 (centres unmarked) [QND3]: < 5.00
Cn1ccc2cc(-c3cn(C4CN5CCC4CC5)nn3)ccc21 (centres unmarked) [QND9]: 5.28

Ask: State the recorded pKd for this entry: c1ccc2c(-c3cn(C4CN5CCC4CC5)nn3)c[nH]c2c1 (centres unmarked) [QND12]
Reply: < 5.00

Ask: One more compound: O=Cc1c[nH]c2ccc(-c3cn(C4CN5CCC4CC5)nn3)cc12 (centres unmarked) [QND5]
Reply: < 5.00

Ask: Continue with c1ccc(-c2ccc(-c3cn(C4CN5CCC4CC5)nn3)cc2)cc1 (centres unmarked) [QND7]
Reply: < 5.00

Ask: Also, O=C(N[C@H]1CN2CCC1CC2)c1ccc(Cl)cc1 [PNU-282987, reference compound] please.
Reply: < 5.00

Ask: Would you mind doing COC(=O)c1ccc2[nH]cc(-c3cn(C4CN5CCC4CC5)nn3)c2c1 (centres unmarked) [QND11] as well?
Reply: 5.03

Ask: Entry to check: COC(=O)c1cc(-c2cn(C3CN4CCC3CC4)nn2)ccc1N (centres unmarked) [QND15]
Reply: 4.94

---

// EC50 lookup, one value per entry
target: α4β2-nAChRs (Homo sapiens, UniProt P17787+P43681); experiment: FRET functional assay (agonist/antagonist) using LGIC-CNiFERs; conditions: >10 = did not pass initial screen; read-out: EC50 ± SD, α4β2

c1cc2cc(-c3cn(C4CN5CCC4CC5)nn3)ccc2[nH]1 (centres unmarked): > 10 µM

Ask: For O=C(N[C@H]1CN2CCC1CC2)c1ccc(Cl)cc1 [PNU-282987, reference compound] , what is its reported EC50?
Reply: > 10 µM

---

Reported Kd is given for each of the following molecules.
target: 5HT3A receptors (Mus musculus, UniProt P23979); construct: expressed in transfected cells; host or cells: HEK293 cells co-expressing TN-XXL; assay: FRET functional assay (agonist/antagonist) using LGIC-CNiFERs; format: cell-based; conditions: competitive antagonist (^C); >10 = did not pass initial screen; vs 5-HT; read-out: Antagonist KA ± SD, 5HT3A

COC(=O)c1ccc2[nH]cc(-c3cn(CCN4CCCCC4)nn3)c2c1 [PPRD11]: > 10 µM
COc1ccc2cc(-c3cn(C4CN5CCC4CC5)nn3)ccc2c1 (stereo not shown) [QND6]: > 10 µM
c1ccc(-c2ccc(-c3cn(C4CN5CCC4CC5)nn3)cc2)cc1 (stereo not shown) [QND7]: > 10 µM
O=Cc1c[nH]c2ccc(-c3cn(CCN4CCCCC4)nn3)cc12 [PPRD5]: > 10 µM
Clc1ccc(-c2cn(CCN3CCCCC3)nn2)cc1 [PPRD13]: > 10 µM
Nc1ncnc2c1ncn2Cc1cn(C2CN3CCC2CC3)nn1 (stereo not shown) [QND10]: > 10 µM
Nc1ccc(-c2cn(CCN3CCCCC3)nn2)cc1 [PPRD8]: 39 µM
COc1ccc2cc(-c3cn(CCN4CCCCC4)nn3)ccc2c1 [PPRD6]: > 10 µM
COc1ccc(-c2cn(CCN3CCCCC3)nn2)cc1 [PPRD3]: > 10 µM

# ---- query molecule ----
Ask: # get_value(readout='Kd', item= Nc1ccc(-c2cn(CCN3CCCCC3)nn2)cc1 [PPRD2] )
Reply: >10 µM

---

Entries and their Kd
Target: α7-nAChRs (Homo sapiens)
Construct: expressed in transfected cells; host or cells: HEKtsA201 cells co-expressing TN-XXL
Assay: FRET functional assay (agonist/antagonist) using LGIC-CNiFERs
Assay type: cell-based
Settings: competitive antagonist (^C); >10 = did not pass initial screen; vs (±)-epibatidine; read-out: Antagonist KA ± SD, α7
Method: Initially, the agonist properties of tested compounds were assessed directly. […] Agonist and antagonist elicited responses were characterized using the above CNiFER cell expressing Cys-loop ligand-gated ion channel (LGIC) receptors. […] Basal fluorescence was recorded for 30 s, followed by addition of 50 μL of ligand (first addition). […]
The answer is to be given in µM; state only the numeric part.

COC(=O)c1ccc2[nH]cc(-c3cn(CCN4CCCCC4)nn3)c2c1 [PPRD11]: 6.6

Ask: Given the entry Nc1ncnc2c1ncn2Cc1cn(CCN2CCCCC2)nn1 [PPRD10] , what Kd was observed with α7-nAChRs (Homo sapiens)?
Reply: 11.6

---

biological target: 5HT3A receptors (Mus musculus, UniProt P23979); construct: expressed in transfected cells; host or cells: HEK293 cells co-expressing TN-XXL; test: FRET functional assay (agonist/antagonist) using LGIC-CNiFERs; type: cell-based; settings: competitive antagonist (^C); >10 = did not pass initial screen; vs 5-HT; read-out: Antagonist KA ± SD, 5HT3A
pKd: −log10 of the molar value.
Value Type: pKd

Example entries and their recorded answers appear below.
c1cc2c(cc1-c1cn(CCN3CCCCC3)nn1)OCO2 [PPRD1]: < 5.00
COC(=O)c1cc(-c2cn(CCN3CCCCC3)nn2)ccc1N [PPRD15]: 5.22
c1cc2cc(-c3cn(CCN4CCCCC4)nn3)ccc2[nH]1 [IND1]: < 5.00
c1ccc(-c2ccc(-c3cn(CCN4CCCCC4)nn3)cc2)cc1 [PPRD7]: < 5.00
Cc1ccc(-c2cn(CCN3CCCCC3)nn2)cc1 [PPRD4]: < 5.00

Next compound, pKd to be filled in.
Ask: Looking for the measured pKd of Nc1ncnc2c1ncn2Cc1cn(CCN2CCCCC2)nn1 [PPRD10] , can you help?
Reply: < 5.00

---

biological target: α4β2-nAChRs (Homo sapiens, UniProt P17787+P43681); construct: expressed in transfected cells; host or cells: HEKtsA201 cells co-expressing TN-XXL; assay: Intact cell competitive radioligand binding assay ([3H]-(±)-epibatidine, SPA), LGIC-CNiFERs
Value Type: Kd

Ask: Value wanted: Kd (α4β2-nAChRs (Homo sapiens, UniProt P17787+P43681)) of entry O=C(N[C@H]1CN2CCC1CC2)c1ccc(Cl)cc1 [PNU-282987, reference compound]
Reply: > 10 µM

---

target: α7-nAChRs (Homo sapiens, UniProt P36544); construct: expressed in transfected cells; host or cells: HEKtsA201 cells co-expressing TN-XXL; experiment: FRET functional assay (agonist/antagonist) using LGIC-CNiFERs; format: cell-based; details: in presence of 10 μM PNU-120596; * partial agonist; >10 = did not pass initial screen; read-out: Agonist EC50 ± SD, α7
pEC50: −log10 of the molar value.
Binary classification by pEC50, with 6 as an inclusive lower bound for t; all other cases are f.

Ask: Has CN(C)CCn1cc(-c2ccc3[nH]ccc3c2)nn1 a recorded pEC50 greater than or equal to 6?
Reply: f

Ask: Field entry: COc1ccc2cc(-c3cn(CCN4CCCCC4)nn3)ccc2c1
Reply: f

Ask: Another: c1cc2c(cc1-c1cn(C3CN4CCC3CC4)nn1)OCO2 (stereo not drawn)
Reply: t

Ask: Lookup c1cc2cc(-c3cn(CCN4CCCCC4)nn3)ccc2[nH]1
Reply: t

Ask: Can you check Cc1ccc(-c2cn(C3CN4CCC3CC4)nn2)cc1 (stereo not drawn) next?
Reply: t

Ask: And for COC(=O)c1cc(-c2cn(CCN3CCCCC3)nn2)ccc1N ?
Reply: f

Ask: Also need COc1ccc(-c2cn(C3CN4CCC3CC4)nn2)cc1 (stereo not drawn) , thanks.
Reply: t

Ask: # iterate: Nc1ccc(-c2cn(CCN3CCCCC3)nn2)cc1 [PPRD2]
Reply: t
